Values were extracted from patent US20260184693A1.

target: human SLC6A19 (Homo sapiens, UniProt Q695T7); construct: expressed in transfected cells; assay: Example B2: 13C6,15N-isoleucine uptake, RapidFire mass spectrometry, in CHO cells with doxycycline-inducible expression of human SLC6A19 and TMEM27; type: cell-based; conditions: read-out: SLC6A19_RapidFire Uptake Assay IC50
Sequence (Q695T7 whole entry): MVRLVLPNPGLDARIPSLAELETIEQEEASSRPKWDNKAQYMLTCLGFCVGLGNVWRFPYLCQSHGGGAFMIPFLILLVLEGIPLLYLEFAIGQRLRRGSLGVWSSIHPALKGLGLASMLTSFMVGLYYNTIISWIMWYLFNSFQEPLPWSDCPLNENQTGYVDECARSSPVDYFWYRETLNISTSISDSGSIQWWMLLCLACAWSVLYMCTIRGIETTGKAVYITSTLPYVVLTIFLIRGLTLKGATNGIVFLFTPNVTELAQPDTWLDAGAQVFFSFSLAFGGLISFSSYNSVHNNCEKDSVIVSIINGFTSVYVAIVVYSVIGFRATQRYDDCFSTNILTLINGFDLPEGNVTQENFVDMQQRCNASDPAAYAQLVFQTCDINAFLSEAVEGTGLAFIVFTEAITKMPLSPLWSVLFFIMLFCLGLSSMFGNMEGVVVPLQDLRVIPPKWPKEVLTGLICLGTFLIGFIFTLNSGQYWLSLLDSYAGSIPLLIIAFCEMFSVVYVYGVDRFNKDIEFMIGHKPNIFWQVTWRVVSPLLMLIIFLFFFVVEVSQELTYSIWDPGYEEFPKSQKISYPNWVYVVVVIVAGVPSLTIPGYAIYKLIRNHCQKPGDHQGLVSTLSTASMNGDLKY
Sequence (Q9HBJ8 15-222 partner): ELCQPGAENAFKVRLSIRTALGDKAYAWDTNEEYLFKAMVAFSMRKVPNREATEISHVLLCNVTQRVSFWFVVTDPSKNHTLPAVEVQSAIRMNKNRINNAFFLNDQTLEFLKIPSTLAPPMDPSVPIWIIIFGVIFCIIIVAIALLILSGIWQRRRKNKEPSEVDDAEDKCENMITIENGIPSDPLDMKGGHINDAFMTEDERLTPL
A collection of molecules and their measured IC50
Endpoint name: IC50 (nM)

> print(dat)
                                    molecule  comparison.operator  readout.number
 1  CCN(C(=O)NCc1cc2cc(Cl)c(OCc3ccon3)cc2[nH]1)[C@@H]1CCCN(C(C)=O)C1 [Compound 137]                    =             273
 2  CC(=O)N1CCC[C@@H](N(C)C(=O)NCc2cc3ccc(F)cc3[nH]2)C1 [Compound 160]                    =             708
 3  CC(=O)N1CCC[C@@H](N(C)C(=O)NCc2cc3cc(F)c(F)cc3[nH]2)C1 [Compound 156]                    =             282
 4  CC(=O)N1CC[C@@H](C)[C@@H](N(C)C(=O)NCc2cc3cc(Cl)ccc3[nH]2)C1 (racemic) [Compound 203]                    =            4870
 5  Cc1cnc(C(=O)N2CCC[C@@H](N(C)C(=O)NCc3cc4cc(Cl)ccc4[nH]3)C2)s1 [Compound 35]                    =             556
 6  CN(C(=O)NCc1cc2cc(Cl)ccc2[nH]1)[C@@H]1CCCN(C(=O)C(C)(O)C(F)(F)F)C1 (stereo partly shown) [Compound 50]                    =            4770
 7  CN(C(=O)NCc1cc2cc(Cl)ccc2[nH]1)[C@@H]1CCCN(C(=O)c2cccnc2)C1 [Compound 237]                    =            1210
 8  Cc1n[nH]nc1C(=O)N1CCC[C@@H](N(C)C(=O)NCc2cc3cc(Cl)ccc3[nH]2)C1 [Compound 25]                    =           11600
 9  CN(C(=O)NCc1cc2cc(Cl)ccc2[nH]1)[C@@H]1CCCN(C(=O)C2(CO)CCC2)C1 [Compound 122]                    =            8600
10  CN(C(=O)NCc1cc2ccccc2[nH]1)[C@@H]1CCCN(c2ccon2)C1 [Compound 150]                    =            91.9
11  CNC(=O)N1CCC[C@@H](N(C)C(=O)NCc2cc3cc(Cl)ccc3[nH]2)C1 [Compound 171]                    =            80.6
12  CN(C(=O)NCc1cc2cc(Cl)ccc2[nH]1)[C@@H]1CCCN(C(=O)CCn2cccn2)C1 [Compound 91]                    =            1810
13  CN(C(=O)NCc1cc2cc(Cl)ccc2[nH]1)[C@@H]1CCCN(C(=O)CC#N)C1 [Compound 3]                    =             359
14  CN(C(=O)NCc1cc2cc(Cl)ccc2[nH]1)[C@@H]1CCCN(C(=O)C2CC(F)(F)C2)C1 [Compound 44]                    =             350
15  CN(C(=O)NCc1cc2cc(Cl)ccc2[nH]1)[C@@H]1CCCN(C(=O)CNC(=O)C(F)(F)F)C1 [Compound 56]                    =            2460
16  CN1CC(C(=O)N2CCC[C@@H](N(C)C(=O)NCc3cc4cc(Cl)ccc4[nH]3)C2)C1 [Compound 129]                    >           31800
